- Test system: plaque forming cell (PFC)
- method-description: Immunosuppressive activity: plaque forming cell (PFC) number by Cunningham method in mice injected with sheep red blood cells
- Format: in vivo
- reported-conditions: 25 mg/kg/day p.o., days 0 to 3; measured day 4
Entries and their Suppression (%)

- NC(=O)c1[nH]cnc1OC(=O)C12CC3CC(CC(C3)C1)C2: 77.2%
- NC(=O)c1[nH]cnc1OC(=O)c1ccc(Cl)cc1: 64.6%
- NC(=O)c1[nH]cnc1OC(=O)c1ccccc1 [5-Carbamoyl-1H-imidazole-4-yl benzoate, 5-carbamoyl-1H-imidazol-4-yl benzoate]: 68.1%

Fill in: Suppression (%) of Sc1ncnc2nc[nH]c12 [6-Mercaptopurine, 6-mercaptopurine, reference compound] is ___
60.2%

The reported measurements were obtained from patent US4260774A.
